Sourced from patent US20120270844A1

biological target: PAK2 (Homo sapiens); experiment: Z'Lyte fluorescence-based (FRET) PAK kinase assay, PAK2; format: biochemical; settings: Table 1 of Example 29 (own compound numbering); 75 µM ATP
Sequence (Q13177 whole entry): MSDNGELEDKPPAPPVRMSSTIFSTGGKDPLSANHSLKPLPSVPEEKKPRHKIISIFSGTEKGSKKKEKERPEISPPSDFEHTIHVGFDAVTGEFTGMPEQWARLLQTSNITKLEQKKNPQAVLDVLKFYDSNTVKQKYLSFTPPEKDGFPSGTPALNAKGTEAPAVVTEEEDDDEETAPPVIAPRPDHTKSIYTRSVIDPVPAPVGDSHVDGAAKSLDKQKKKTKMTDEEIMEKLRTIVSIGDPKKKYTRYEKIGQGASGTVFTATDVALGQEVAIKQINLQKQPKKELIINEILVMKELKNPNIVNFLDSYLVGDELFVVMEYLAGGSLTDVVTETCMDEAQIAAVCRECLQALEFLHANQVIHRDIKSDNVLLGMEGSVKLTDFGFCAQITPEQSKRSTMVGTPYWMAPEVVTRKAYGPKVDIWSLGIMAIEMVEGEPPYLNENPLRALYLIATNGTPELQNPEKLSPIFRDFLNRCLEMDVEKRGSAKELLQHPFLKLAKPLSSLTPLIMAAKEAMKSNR
MEASURED_PARAMETER: IC50

Known IC50 results, listed for orientation:
CN1CCN(c2ccc(Nc3ncc4ccc(=O)n(Cc5c(O)cccc5Cl)c4n3)cc2)CC1 [Compound 109]; < 1000 nM
Cc1ccccc1Cn1c(=O)ccc2cnc(Nc3ccc(N4CCN(C)CC4)cc3)nc21 [Compound 117]; < 1000 nM
O=c1ccc2cnc(Nc3ccc(N4CCNCC4)c(F)c3)nc2n1Cc1ccccc1-c1ncno1 [Compound 132]; 1000 to 10000 nM
CN1CCN(c2ccc(Nc3ncc4ccc(=O)n(Cc5ccccc5-n5cccn5)c4n3)cc2)CC1 [Compound 107]; 1000 to 10000 nM
CN1CCN(c2ccc(Nc3ncc4ccc(=O)n(CC(=O)c5ccccc5)c4n3)cc2)CC1 [Compound 104]; 1000 to 10000 nM

[in] PAK2 (Homo sapiens) / IC50 / O=c1c(-c2ccccc2)cc2cnc(Nc3ccc(NC4CCCNC4)cc3)nc2n1Cc1ccccc1C(F)(F)F (stereo not shown) [Compound 167] : value?
[out] < 1000 nM

[in] PAK2 (Homo sapiens) / IC50 / O=c1ccc2cnc(Nc3ccc(N4CCNCC4)cc3)nc2n1C1CCCc2ccccc21 (stereo not shown) [compound 61] : value?
[out] 1000 to 10000 nM
